Assignment: determine reported fold change of affinity for the given binders.
target: T1, Human CD137 ECD (human); test: single mutant vs template dBBDu183H
T1 construct: also called 4-1BB
T1 sequence (chain, as listed by the source limits assumed): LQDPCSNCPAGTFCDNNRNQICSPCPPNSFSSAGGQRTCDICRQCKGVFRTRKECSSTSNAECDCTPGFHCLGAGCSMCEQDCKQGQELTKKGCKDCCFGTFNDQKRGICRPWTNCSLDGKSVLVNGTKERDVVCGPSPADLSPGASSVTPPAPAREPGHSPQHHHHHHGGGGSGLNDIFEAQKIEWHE
Could you kindly put the unit after your number?

Guide cases for fold change of affinity, answers given:
H183/L072 VH Y97M (antibody, name in Kabat numbering, V domains shown) VH: QVQLVESGGGLVQPGRSLRLSCAASGFTFSNAWMHWVRQAPGKGLEWVAQIKDKGNAYAAYYAPSVKGRFTISRDDSKNSIYLQMNSLKTEDTAVYYCHYVHMASASTVLPAFGVDAWGQGTTVTVSS VL: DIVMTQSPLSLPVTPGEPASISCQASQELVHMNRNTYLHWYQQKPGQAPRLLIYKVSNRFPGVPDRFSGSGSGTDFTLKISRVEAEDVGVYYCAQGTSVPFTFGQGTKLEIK | 0 fold
H183/L072 VH G52cL (antibody, name in Kabat numbering, V domains shown) VH: QVQLVESGGGLVQPGRSLRLSCAASGFTFSNAWMHWVRQAPGKGLEWVAQIKDKLNAYAAYYAPSVKGRFTISRDDSKNSIYLQMNSLKTEDTAVYYCHYVHYASASTVLPAFGVDAWGQGTTVTVSS VL: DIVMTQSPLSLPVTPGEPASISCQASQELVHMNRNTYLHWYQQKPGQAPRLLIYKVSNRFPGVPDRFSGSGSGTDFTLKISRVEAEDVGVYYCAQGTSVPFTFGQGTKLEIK | 0.8 fold

# binder H183/L072 VH A100fP (antibody, name in Kabat numbering, V domains shown) VH: QVQLVESGGGLVQPGRSLRLSCAASGFTFSNAWMHWVRQAPGKGLEWVAQIKDKGNAYAAYYAPSVKGRFTISRDDSKNSIYLQMNSLKTEDTAVYYCHYVHYASASTVLPPFGVDAWGQGTTVTVSS VL: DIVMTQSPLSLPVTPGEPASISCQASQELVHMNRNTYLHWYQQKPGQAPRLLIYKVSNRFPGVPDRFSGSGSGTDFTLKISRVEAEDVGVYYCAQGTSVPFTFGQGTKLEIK ; its fold change of affinity = 0.3 fold
